# experimentalProtocol: in vitro
# details: human, hela cells, % viability, bulk resorufin, single well
Entries and their viability at 28.5 h, 10 µM
I only need the number, in %, no unit after it.

Here are 3 compounds together with their reported answers.
O=C1NC(=O)C(CCc2ccccn2)(Cc2ccc3c(c2)OCO3)C(=O)N1CCc1ccccc1 (stereo not shown) = 98.7
O=C(O)C(O)(c1ccccc1)c1cccs1 (stereo not shown) = 108
CCc1ccc(N2C(=O)/C(=C/c3ccc(OCC(=O)O)c(Br)c3)C(=O)NC2=S)cc1 = 96.4

Q: For the compound `CCOC(=O)C1(c2ccccc2)CCN(C(=O)Cc2ccc(Cl)c(Cl)c2)CC1` , what viability at 28.5 h, 10 µM is on record?
Result: 113

Q: // next record `O=C(Nc1ccc(NC(=O)c2cccc([N+](=O)[O-])c2)c(Cl)c1)c1cccc([N+](=O)[O-])c1`
Result: 105

Q: Can you check `CC(=O)Nc1ccc(-c2ccc3c(c2)COC2(CCN(C(=O)Cc4ccc(F)cc4F)CC2)O3)cc1` next?
Result: 102

Q: Same for `N#CC1(c2ccccc2)CCN(C(=O)c2ccc([N+](=O)[O-])o2)CC1`
Result: 95.7

Q: Then `CCOC(=O)C1CCN(/C=C2/C(=O)NC(=S)N(c3ccccc3F)C2=O)CC1` ?
Result: 102

====

Reported viability at 28.5 h, 10 µM by item:
# experimentalProtocol: in vitro
# details: human, hela cells, % viability
Respond with the figure and its unit, in that order.

Recorded viability at 28.5 h, 10 µM, per entry:
O=C(O)Cn1cnc(-c2ccc(Br)cc2)c1 [CBK262441] = 111%
Cn1c(CCNC(=O)C2CCCCC2)nc2cc([N+](=O)[O-])ccc21 [CBK268440] = 106%
COc1ccc(-c2ccnc(N[C@H]3CO[C@H]4[C@@H]3OC[C@@H]4NC(=O)c3ccccc3)n2)cc1 [CBK289526] = 83.5%
Cc1cccc(-c2nc(C(N)=O)c3[nH]c(=O)n(-c4ccc(F)cc4)c3n2)c1 [CBK287632] = 111%

Q: Would you kindly share the measured viability at 28.5 h, 10 µM for Nc1ccccc1NC(=O)NC(=O)c1ccccc1 [CBK022767] ?
Result: 94%

====

# experimentalProtocol: in vitro
# details: human, hela cells, % viability
observationType: viability at 28.5 h, 10 µM (%)
Value expressed in %; do not type the unit.

Q: Entry `CN(C(=O)Cc1ccccc1)c1ccccc1` has what viability at 28.5 h, 10 µM?
Result: 103

Q: Then this molecule: COc1cc(OC)nc(C(NC(=O)C2CCN(C(=O)c3ccno3)CC2)c2ccc(Cl)cc2)n1 (stereo not drawn)
Result: 115

Q: Next molecule: `CCn1nccc1C(=O)Nc1nc2ccccc2n1CCN1CCCCC1`
Result: 89.1

Q: Also `Cc1cc(C(=O)N2CCC(N3C(=O)OCC3(C)C)CC2)n(C(C)(C)C)n1` ?
Result: 94.4

Q: Moving on to Cc1cc(CN2CCOCC2)oc1C(=O)O [CBK263239C]
Result: 104

Q: Here is the next molecule: `COC(=O)c1cccc(N(C)S(=O)(=O)c2sc3ccc(Cl)cc3c2C)c1`
Result: 94.1

Q: And COc1ccc(C)cc1S(=O)(=O)N1CCc2c(CN3CCN(C)CC3)cccc21 [CBK113628T] ?
Result: 115

Q: What do you get for `Cc1cc(OCC(=O)Nc2nc[nH]n2)ccc1Cl` ?
Result: 117

====

# experimentalProtocol: in vitro
# details: human, hela cells, % viability
Measured viability at 28.5 h, 10 µM accompanies every entry in the list below.

COc1ccc(-c2ccccc2NC(=O)C2CC(=O)N(Cc3cccc(F)c3)C2)cc1 (stereo not shown) [CBK285937] = 89.3%
CCCC(=O)c1ccc(S(=O)(=O)N2CCCN(Cc3ccc(OC)c(F)c3)CC2)cc1 [CBK062926] = 93.7%
O=C(C1CCCC1)N1C2CCC1CC(O)(c1cccnc1F)C2 (stereo not shown) [CBK284421] = 88.4%
CC1=NN(c2ccc(S(N)(=O)=O)cc2)C(=O)/C1=C\c1ccc(-c2cc([N+](=O)[O-])ccc2C)o1 [CBK263460] = 106%
Cc1cccc(-c2ccc3c(c2)C(=O)N2CC[C@H](NC(=O)N4CCOCC4)[C@H]2C(=O)N3)c1C [CBK289347] = 88.1%

Q: Name the reported viability at 28.5 h, 10 µM value associated with the compound FC(F)(F)c1cccc(CN2CCN(CCc3ccccc3)CC2)c1 [CBK126421]
Result: 99.7%

Q: Entry Cc1ccc(C(=O)Nc2ccccc2C(=O)NC(C)C(=O)O)cc1 (stereo not shown) [CBK263540] please
Result: 93.9%

Q: Entry to check: Cc1cc(C)n(CC(=O)N2CCCC(c3cc4cccnc4[nH]3)C2)n1 (stereo not shown) [CBK284928]
Result: 96.2%

Q: Same question, Cn1c(CCC(=O)Nc2c[nH]c3ccccc23)nc2ccccc21 [CBK282507] this time
Result: 85.9%

Q: Then Oc1ccc(-c2n[nH]c(=S)n2-c2ccccc2)cc1 [CBK014887] ?
Result: 113%

Q: Same read-out for Cc1cc(CN(C)Cc2cnn(-c3ccc(F)cc3)c2)n[nH]1 [CBK281706] ?
Result: 97.1%

Q: Do the same for CCCCNC(=S)NC1CC[C@@]2(Cc3ccc(OC)c(OC)c3)CCN(C)[C@H]2C1 (stereo partly shown) [CBK023805] please
Result: 81.5%

====

# experimentalProtocol: in vitro
# details: human, hela cells, % viability
Assign labels as follows, please: TRUE for viability at 28.5 h, 10 µM below 90%; FALSE for viability at 28.5 h, 10 µM equal to or exceeding 90%.

Use these answered entries as a reference point.
COc1cc2c(cc1OC)CN(CC(O)COc1cccc3c1CCCC3)CC2 (stereo not shown) = FALSE
O=C(CN(Cc1ccc(Cl)cc1Cl)S(=O)(=O)c1ccccc1)Nc1c(F)cccc1F = FALSE
C[C@@H](Nc1nccnc1-c1cccc(F)c1)c1ccccc1 = FALSE
COC(=O)c1c(C)[nH]c(C(=O)CSc2ncnc3sc(C)c(-c4ccccc4)c23)c1C = FALSE

Q: Please check: viability at 28.5 h, 10 µM for O=C(Nc1cc2ccccc2c(N2CCNCC2)n1)c1ccccc1 [CBK028423T] , strictly under 90% or not?
Result: FALSE

Q: What about this compound? `O=C(COc1ccccc1[N+](=O)[O-])Nc1ccc(Br)cc1C(=O)O`
Result: TRUE

Q: What do you get for CCOc1ccccc1NC(=O)NC(=O)C1CCN(C(C)c2ccc(Cl)cc2)CC1 (stereo not shown) ?
Result: FALSE

Q: Also `C/C(CC(=O)Nc1ccc(C)cc1)=N\NC(=O)c1cccc(O)c1` , if possible.
Result: FALSE

Q: Now the compound `COc1ccc(Cl)cc1S(=O)(=O)N1CCN(Cc2ccc3c(c2)OCO3)CC1`
Result: FALSE

Q: Ok, now `Nc1ncc(-c2cccc(OC(F)(F)F)c2)nc1-c1ccc(CCC(=O)O)cc1`
Result: FALSE

Q: Quick one: CCn1c(=O)n(CC(=O)N2CCCC3CCCCC32)c2cccnc21 (stereo not shown)
Result: TRUE

Q: Okay, and `NC(=O)C1CCN(CC(=O)Nc2cc(C(F)(F)F)ccc2Cl)CC1` ?
Result: FALSE

====

# experimentalProtocol: in vitro
# details: human, hela cells, % viability
Below, each entry is listed with its recorded viability at 28.5 h, 10 µM.
The figure you give is taken to be in %; do not add the unit.

See these solved cases before continuing.
O=C(CC1Nc2ccccc2NC1=O)Nc1ccc(F)c(Cl)c1 (stereo not drawn) = 97
O=C(Cc1cccnc1)N1CCC(c2cccc(Cc3ccc(C(F)(F)F)cc3)n2)CC1 = 92.8
Cc1cccc(-c2nnc(-c3cccc(NC(=O)COc4ccccc4)c3)o2)c1 = 95.8
COC(=O)c1c(NC(=O)CSc2nnc3ccccn23)sc(C)c1C = 95.7
CC1CCc2noc(C3CCN(C(=O)c4ccnn4C)CC3)c2C1 (stereo not drawn) = 105
CC(C)(C)OC(=O)N1CCC(COc2ccc(-c3ccncc3)cn2)CC1 = 91.8

Q: Given CCOC(=O)C1(Cc2cc(-c3ccccc3F)no2)CCCNC1 (stereo not drawn) , state its recorded viability at 28.5 h, 10 µM.
Result: 85.2

Q: Do the same for `COc1ccc(F)cc1-c1ccc(CC2(C(=O)NC3CCCCC3)CCOCC2)cc1` please
Result: 86.6

Q: What do you have for `NS(=O)(=O)c1ccc(CCNS(=O)(=O)c2ccccc2[N+](=O)[O-])cc1` ?
Result: 111

====

# experimentalProtocol: in vitro
# details: human, hela cells, % viability
observationType: viability at 28.5 h, 10 µM (%)
Report as a plain number; the unit % is understood.

Sample records with viability at 28.5 h, 10 µM:
CCCCCCn1nc(C(=O)NCC(=O)O)c2ccccc2c1=O [CBK297491] = 97.3
O=C(NCCc1cccs1)Nc1ccc2c(c1)C(F)(F)OC(F)(F)O2 [CBK045255] = 98.2
O=S(=O)(Nc1cccc2cccnc12)c1cccs1 [CBK043904] = 60.8
CCCn1c(C)cc2cc(NC(=O)Cn3cc(C)nn3)ccc21 [CBK281548] = 104

Then there is this compound:
Q: Consider the compound shown here: Cc1ccc2[nH]c(SCc3nc(-c4cccs4)no3)nc2c1 [CBK269509] What is its recorded viability at 28.5 h, 10 µM?
Result: 108
